B1: FERM and PDZ domain-containing protein 4, residues 75 to 154; numbered along this chain, Q14CM0 (parent)
chain: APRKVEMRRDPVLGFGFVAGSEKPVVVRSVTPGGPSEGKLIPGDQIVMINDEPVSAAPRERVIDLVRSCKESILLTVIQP

- Variants of: B1
- experimental_protocol: abundance fitness (aPCA) (normalised: wild type 0, dead -1); higher = more abundant; growth selection in yeast, the domain comes from the species named
- condition_context: Homo sapiens
quantity_name: abundance fitness
Would you mind answering with just the numeric figure?

Solved cases below.
R67Y: -0.06
I63F: 0.016
Q79Y: -0.09
Q45L: -0.136

What the record says about R28V : abundance fitness is -0.089
